Reported values of IC50 for individual entries
TESTED_TARGET: anti-CD28 Fab
Sequence (VH, as listed by the source, chain 1 of 2): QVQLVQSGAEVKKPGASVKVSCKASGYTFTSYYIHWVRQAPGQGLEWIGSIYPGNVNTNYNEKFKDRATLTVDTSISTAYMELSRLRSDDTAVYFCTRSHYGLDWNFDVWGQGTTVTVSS
Sequence (VL, as listed by the source, chain 2 of 2): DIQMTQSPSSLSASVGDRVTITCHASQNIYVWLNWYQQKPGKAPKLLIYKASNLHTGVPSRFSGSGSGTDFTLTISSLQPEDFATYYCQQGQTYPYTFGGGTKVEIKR
TEST_SUMMARY: competition ELISA, peptide titrated 0-100 uM against 1 nM anti-CD28 Fab, plate-bound CD28 as competitor
RESULT_TYPE: IC50 (µM)

> print(dat)
                         binder  result.operator  experimental.value
 1  YCAGHSHEYLAKCE [Peptide-98]                =                7.04
 2  YCAGHSPINIGKCL [Peptide-84]                =                26.8
 3  YCAGHMPQYEVKCL [Peptide-95]                =                43.6
 4  SCAAGASYAWPYCL [Peptide-92]                =                2.39
 5  YCMGHSHEHIWKCL [Peptide-97]                =                69.1
 6  YCAGHAWQYINKCL [Peptide-87]                =                13.8
 7  YCAGHTEEHYVKCM [Peptide-96]                =                7.59
 8  WCWDYKLWVPMTCP [Peptide-85]                >                 100
 9  ACDTYFAGMINECF [Peptide-79]                >                 100
10  MDWCPRDLWVHCFA [Peptide-41]                >                 100
